studyTarget: UniProt:Q16790
metricName: Ki

Incoming: Tell me the measured Ki of COC[C@@H](NC(C)=O)C(=O)NCc1ccccc1 [LACOSAMIDE] , please.
Outgoing: 353 nM

----------
studyTarget: Carbonic anhydrase 7 (Homo sapiens, UniProt P43166)
Sequence (P43166 whole entry): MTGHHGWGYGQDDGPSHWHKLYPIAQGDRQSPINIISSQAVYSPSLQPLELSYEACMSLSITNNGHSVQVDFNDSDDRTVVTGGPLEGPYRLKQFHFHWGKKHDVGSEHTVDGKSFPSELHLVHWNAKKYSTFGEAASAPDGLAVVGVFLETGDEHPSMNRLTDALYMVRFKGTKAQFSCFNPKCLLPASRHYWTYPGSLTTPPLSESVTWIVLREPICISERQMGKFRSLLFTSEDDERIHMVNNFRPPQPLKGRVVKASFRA
procedureSummary: Inhibition of human recombinant CA7 by stopped flow CO2 hydrase assay
metricName: Ki (µM)
Kindly provide the numeric value in µM only, without the unit symbol.

Incoming: Tell me the measured Ki of COC[C@@H](NC(C)=O)C(=O)NCc1ccccc1 [LACOSAMIDE] , please.
Outgoing: 4.45

Measured values drawn from ChEMBL document CHEMBL1154758 for this set.
